Tested on: DAPI
Experiment: TAG lipid buildup inhibition with viability readout – cell-based, panel, Nile Red and DAPI fluorescence, H9c2, dose response (AID 651630);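 also: cells exposed to compound overnight before fixation and staining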
Conditions: H9c2 cells, DAPI nuclear fluorescence (cytotoxicity counter-readout), oleic acid, mean of runs
Calls of active or inactive are those of the source.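 The calls were made as follows: active = lipid-stain IC50 at or below a set limit, with nuclear-stain toxicity IC50 at least five times higher; inactive = the rest.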
Measure Name: IC50 cytotoxicity (DAPI nuclear signal decrease)

Give DAPI IC50 cytotoxicity (DAPI nuclear signal decrease) for COc1ccc(Oc2nc(-c3ccccn3)nc3ccccc23)cc1
> 25 µM (inactive)

What about CC(C)(C)OC(=O)N(CCc1ccccc1)Cc1ccc(OCc2cccc(NC(=O)/C=C/c3ccccc3)c2)cc1 ?
> 25 µM (inactive)

Continue with O=C1N[C@@H](Cc2ccccc2)COC(=O)[C@@H](Cc2ccc(F)cc2)CC/C=C/C[C@@H]1CC(=O)N(CCO)Cc1ccccc1
> 25 µM (inactive)

Again, but for CCN(CC)CCNc1nc2cc(OC)c(OC)cc2c2nc(-c3ccccc3)nn12
> 25 µM (inactive)

Moving on to N#CCC(=O)N/N=C/c1cn(Cc2ccc(Cl)c(Cl)c2)c2ccccc12
> 25 µM (inactive)

Same thing, different compound: CSc1nc(N(C)NC(=O)c2ccccc2)c2ccccc2n1
> 25 µM (inactive)

Repeat with COc1ccc([C@H]2CC(=O)C=C(c3ccc(OC)cc3OC)C2)cc1
> 25 µM (inactive)

Moving on to COc1cc(C)c2sc3ccccc3c(=O)c2c1NCCN(C)C
> 25 µM (inactive)

Also need CN(C)C(=O)c1cccc(-c2cnc3c(NC=O)cc(-c4ccc(C(=O)N5CCOCC5)cc4)cn23)c1 , thanks.
> 25 µM (inactive)

Query Nc1ccc2ccccc2c1N=Nc1ccccc1 next
> 25 µM (inactive)

---

Tested on: DAPI
Assay: TAG lipid buildup inhibition with viability readout – cell-based, panel, Nile Red and DAPI fluorescence, H9c2, dose response (AID 651630);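 also: cells exposed to compound overnight before fixation and staining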
Conditions: H9c2 cells, DAPI nuclear fluorescence (cytotoxicity counter-readout), oleic acid, mean of runs
Calls of active or inactive are those of the source.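 Rule for the calls: active = lipid-stain IC50 at or below a set limit, with nuclear-stain toxicity IC50 at least five times higher; inactive = the rest.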
Measure Name: IC50 cytotoxicity (DAPI nuclear signal decrease)

Request the reported IC50 cytotoxicity (DAPI nuclear signal decrease) associated with CC1(C)CCCN(Cc2c(O)ccc3c(=O)c(-c4nc5ccccc5s4)c(N)oc23)C1
> 25 µM (inactive)

Then what about the molecule COCCNC(=O)c1cc2c(-c3ccc(Cl)cc3)nn(C)c2s1 ?
> 25 µM (inactive)

Then what about the molecule Cc1cc(NC(=O)CSc2nc3ccccc3c(=O)n2C2CCCC2)no1 ?
> 25 µM (inactive)

Please do the same for COc1ccc(-c2nc(-c3ccccc3)c(-c3cc([N+](=O)[O-])ccc3C)[nH]2)cc1OC as well.
> 25 µM (inactive)

Next molecule: C=CCC[C@H](Cc1ccc(F)cc1)C(=O)OC[C@H](C)NC(=O)[C@@H](CC=C)CC(=O)N[C@H](CO)Cc1ccccc1
> 25 µM (inactive)

Consider next the molecule Cc1ccc2nc3n(c(=O)c2c1)-c1cc2ccccc2cc1C(=O)NC3Cc1ccc(O)cc1 (stereo not drawn) in the same way.
> 25 µM (inactive)

Entry to check: CCOc1c(Br)cc(CNC2CCCCCCC2)cc1OC
19.7 µM (inactive)

What do we get for Cc1ccc2c(c1)-c1c(cnn1CC(=O)Nc1ccccc1N1CCN(C)CC1)CO2 ?
> 25 µM (inactive)

How about Cc1noc(C)c1-c1ccc2ncnc(NCC3CCCCN3C)c2c1 (stereo not drawn) ?
> 25 µM (inactive)

Same lookup for CCCCN(C)C(=O)c1ccc(Nc2nc(C(N)Cc3ccc(C(F)(F)F)cc3)cs2)nc1 (stereo not drawn) , please.
> 25 µM (inactive)

Same question, COc1ccccc1-c1cc(C(F)(F)F)nc(S(=O)(=O)CCCC(=O)NC(C)C)n1 this time
18.4 µM (inactive)

Item: CC(C)c1ccc(NC(=O)Nc2nc(C(N)COCc3ccccc3)cs2)cc1 (stereo not drawn)
20.2 µM (inactive)

Further, for COc1cc2c3c(c1)c(C1=NC(=S)NC1=O)c(O)n3C(C)(C)C=C2C ?
> 25 µM (inactive)

What do we get for COc1ccc(CC(N)c2csc(NC(=O)Nc3ccccc3-c3ccccc3)n2)cc1 (stereo not drawn) ?
17.6 µM (inactive)

Also check Cc1ccccc1NC(=O)CSc1nc2ccc(Nc3nc(N4CCOCC4)nc(N4CCOCC4)n3)cc2s1
> 25 µM (inactive)

Here is the next molecule: Cc1ccc(C(=O)Nc2cc(C)c(OCC(=O)N3CCOCC3)c(C)c2)cc1
> 25 µM (inactive)

Also need COC(=O)c1cc(C(=O)N2CCN(c3cccc(Cl)c3)CC2)cc([N+](=O)[O-])c1 , thanks.
> 25 µM (inactive)

And then O=C1COc2ccc(C(=O)CSc3nc4ccccc4c(=O)n3-c3ccc(Cl)c(Cl)c3)cc2N1 , what is it?
18.1 µM (inactive)

Try the molecule Cc1c(C(=O)OCC(C)C)[nH]c2c1C(=O)CC(c1cccs1)C2 (stereo not drawn)
> 25 µM (inactive)

Would you mind doing CC(C)(C)NC(=O)C(c1ccc(-c2ccccc2)cc1)N(C[C@H]1CC[C@@H]([C@@H]2CC[C@H](CO)O2)O1)C(=O)c1ccc2ccccc2c1 (stereo partly drawn) as well?
> 25 µM (inactive)

How about this molecule: CC(C)(C)NC(=O)C[C@H]1C[C@H](C(=O)N2CCCCC2)[C@@]2(CCc3ccccc3)c3[nH]c4ccc(Cl)cc4c3CCN2C1=O
> 25 µM (inactive)

How about this molecule: Cc1cc(N/N=C\c2ccc(Br)cc2)nc(-n2nc(C)cc2C)n1
> 25 µM (inactive)

Try COc1ccc(C2c3cc4c(cc3OC(N3CCOCC3)C2C)OCO4)c(OC)c1 (stereo not drawn) next.
> 25 µM (inactive)

// query: Cc1ccc(Sc2cc(N3CCOCC3)nc(-c3ccccc3)n2)cc1
> 25 µM (inactive)

Do the same for CC(C)CN(C#N)c1nc(N2CCOCC2)nc(N2CCOCC2)n1 please
> 25 µM (inactive)

Here is the next molecule: CCCCOc1ccccc1NC(=O)Cn1c(-c2nonc2N)nc2ccccc21
> 25 µM (inactive)

Another: COC(=O)[C@]1(CC(C)C)N[C@H](c2ccc(-c3ccc(F)cc3)cc2)[C@@H]2C(=O)N(C)C(=O)[C@@H]21
> 25 µM (inactive)

Also COc1ccc(-c2sc3cc4c(cc3c2C#Cc2ccc(N)cc2)OCO4)cc1 , if possible.
> 25 µM (inactive)

Param item: COc1ccc(OC)c(NS(=O)(=O)c2ccc(N3CCCC3=O)cc2)c1
> 25 µM (inactive)

Next up: CCOc1ccc(S(=O)(=O)NCc2ccccn2)cc1NC(=O)c1ccccc1
> 25 µM (inactive)

What do you get for COc1ccc(C(=O)Nc2ccc(Cl)cc2C(=O)NCc2ccco2)cc1 ?
> 25 µM (inactive)

Please do the same for COc1ccc(CNC(=O)Nc2nc(C(N)Cc3ccc(Cl)cc3)cs2)cc1 (stereo not drawn) as well.
21.7 µM (inactive)

Next entry: CC(C)C[C@H]1CNC(=S)N1CC1CCCN1C[C@H](CC(C)C)N1C[C@H](CC(C)C)N(CCc2ccccc2)C1=S (stereo partly drawn)
> 25 µM (inactive)

Field entry: CCOc1ccc(CCNC(=O)c2cc3sc(Cl)cc3n2C)cc1OCC
> 25 µM (inactive)

And for COc1cc(C#Cc2c(-c3cncn3C)n(C)c3ccc(-c4ccc5cc[nH]c5c4)cc23)cc(OC)c1 ?
> 25 µM (inactive)

Request: COc1ccc(NC(=O)N(C)[C@H]2C[C@H]3c4[nH]c5ccc(-c6ccc7c(c6)OCO7)cc5c4CCN3C[C@H]2[C@H](C)O)cc1
> 25 µM (inactive)

Now this one: COCCCNC(=O)C(=O)Nc1ccc2c(c1)N(S(=O)(=O)c1cccs1)CCC2
> 25 µM (inactive)

Another molecule: C=CCn1c(N)c(C(=O)Nc2ccccc2)c2nc3ccccc3nc21
> 25 µM (inactive)

---

Tested on: DAPI
Assay: TAG lipid buildup inhibition with viability readout – cell-based, panel, Nile Red and DAPI fluorescence, H9c2, dose response (AID 651630);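 also: cells exposed to compound overnight before fixation and staining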
Details: H9c2 cells, DAPI nuclear fluorescence (cytotoxicity counter-readout), oleic acid, run 2
Measure Name: IC50 cytotoxicity (DAPI nuclear signal decrease)

Requested read-out: IC50 cytotoxicity (DAPI nuclear signal decrease). Entry: C=CCC[C@@H](Cc1ccc(F)cc1)C(=O)OC[C@@H](Cc1c[nH]c2ccccc12)NC(=O)[C@@H](CC=C)CC(=O)N(CCO)Cc1ccccc1
> 25 µM

# repeat for COc1ccc(C(=O)Nc2sc3c(c2C(=O)NCc2ccco2)CCCC3)cc1OC
> 25 µM

// repeat for COCCOC(=O)c1[nH]c2c(c1C)C(=O)CC(c1ccccc1)C2 (stereo not given) and report
> 25 µM

Consider next the compound CC(C)C[C@H](CO)N(Cc1ccccc1)S(=O)(=O)N(Cc1ccccc1)[C@@H](CO)CC(C)C in the same way.
> 25 µM

Quick one: CCN1CCN(Cc2ccc(NC(=O)c3ccc(C)c(NC(=O)C(=O)c4c[nH]c5ccccc45)c3)cc2C(F)(F)F)CC1
23.1 µM

What do you have for O=[N+]([O-])c1ccc(Nc2nc(N3CCOCC3)nc(N3CCOCC3)n2)cc1 ?
> 25 µM

Try the compound C=CCn1c(N)c(C(=O)Nc2ccccc2)c2nc3ccccc3nc21
> 25 µM

Next compound up: CCOc1c(Br)cc(CNC2CCCCCCC2)cc1OC
20.6 µM

Ok, now COc1ccc2sc(-c3ccc(N(C)C)cc3)c(C#CCO)c2c1
> 25 µM

Now the same for CCC(C)NCCOCCOc1ccc(Cl)c2ccccc12 (stereo not given)
> 25 µM

Entry to check: CN(C)CCCn1c(SCC(=O)Nc2nc(-c3cccc(Br)c3)cs2)nc2ccccc2c1=O
> 25 µM

Also, NC(Cc1ccc(F)cc1)c1csc(Nc2ccc(C(F)(F)F)cn2)n1 (stereo not given) please.
23.8 µM

Moving on to the next compound: COc1ccc(CN(C)C[C@@H]2OCCCC[C@H](C)Oc3ccc(NC(=O)Nc4ccc(F)cc4)cc3C(=O)N([C@H](C)CO)C[C@H]2C)cc1
> 25 µM

Same for COc1cccc(-c2cc(C(=O)Nc3ccc(N(C)C(C)=O)cc3)c3cc(Br)ccc3n2)c1
> 25 µM

Input CCCC(=O)Nc1nc2ccc(NC(=O)c3ccccc3F)cc2s1
> 25 µM

Would you mind doing CCOC(=O)[C@H]1[C@H]2COc3ccc(Cl)cc3[C@@H]2N2C(=O)c3cc(Cl)ccc3NC(=O)[C@@]12C as well?
> 25 µM

// same read-out, input: COc1cc(Cn2c(-c3nonc3N)nc3ccccc32)ccc1C
> 25 µM

Request: CN1CCCC(n2nc(Cc3ccc(Cl)cc3)c3ccccc3c2=O)CC1 (stereo not given)
> 25 µM

Now the compound C=CCn1c(SCc2c(C)noc2C)nc2sc3c(c2c1=O)CCC(C)C3 (stereo not given)
> 25 µM

Moving on to the next compound: COc1cc2c(c(OC)c1OC)-c1ccc(O)cc1C(NC(C)=O)CC2 (stereo not given)
> 25 µM
